Assignment: determine reported solubility change mitosis (log2) for the given sequences.
Tested on: HeLa Kyoto
protocol.description: solubility change mitosis vs G1/S (difference of NP-40 vs SDS log2 ratios) (log2 ratio difference); higher = more soluble in mitosis
Give bare numbers.

Some solved entries appear below for comparison.
MKMKLFQTICRQLRSSKFSVESAALVAFSTSSYSCGRKKKVNPYEEVDQEKYSNLVQSVLSSRGVAQTPGSVEEDALLCGPVSKHKLPNQGEDRRVPQNWFPIFNPERSDKPNASDPSVPLKIPLQRNVIPSVTRVLQQTMTKQQVFLLERWKQRMILELGEDGFKEYTSNVFLQGKRFHEALESILSPQETLKERDENLLKSGYIESVQHILKDVSGVRALESAVQHETLNYIGLLDCVAEYQGKLCVIDWKTSEKPKPFIQSTFDNPLQVVAYMGAMNHDTNYSFQVQCGLIVVAYKDGSPAHPHFMDAELCSQYWTKWLLRLEEYTEKKKNQNIQKPEYSE [MGME1]; 0.0664
MAAAAKPNNLSLVVHGPGDLRLENYPIPEPGPNEVLLRMHSVGICGSDVHYWEYGRIGNFIVKKPMVLGHEASGTVEKVGSSVKHLKPGDRVAIEPGAPRENDEFCKMGRYNLSPSIFFCATPPDDGNLCRFYKHNAAFCYKLPDNVTFEEGALIEPLSVGIHACRRGGVTLGHKVLVCGAGPIGMVTLLVAKAMGAAQVVVTDLSATRLSKAKEIGADLVLQISKESPQEIARKVEGQLGCKPEVTIECTGAEASIQAGIYATRSGGNLVLVGLGSEMTTVPLLHAAIREVDIKGVFRYCNTWPVAISMLASKSVNVKPLVTHRFPLEKALEAFETFKKGLGLKIMLKCDPSDQNP [SORD]; -0.109

Now take the following sequence into account.
Field solubility change mitosis (log2) (HeLa Kyoto), entry MVRKLKFHEQKLLKQVDFLNWEVTDHNLHELRVLRRYRLQRREDYTRYNQLSRAVRELARRLRDLPERDQFRVRASAALLDKLYALGLVPTRGSLELCDFVTASSFCRRRLPTVLLKLRMAQHLQAAVAFVEQGHVRVGPDVVTDPAFLVTRSMEDFVTWVDSSKIKRHVLEYNEERDDFDLEA [IMP3] : 1.1

* * *

System: HeLa Kyoto
protocol.description: melting temperature (median over replicates), in situ; higher = more thermally stable
condition.context: cell cycle stage: G1/S
Assignment: determine reported melting temperature for the given sequences.
Numbers only, in °C.

MAAPGSCALWSYCGRGWSRAMRGCQLLGLRSSWPGDLLSARLLSQEKRAAETHFGFETVSEEEKGGKVYQVFESVAKKYDVMNDMMSLGIHRVWKDLLLWKMHPLPGTQLLDVAGGTGDIAFRFLNYVQSQHQRKQKRQLRAQQNLSWEEIAKEYQNEEDSLGGSRVVVCDINKEMLKVGKQKALAQGYRAGLAWVLGDAEELPFDDDKFDIYTIAFGIRNVTHIDQALQEAHRVLKPGGRFLCLEFSQVNNPLISRLYDLYSFQVIPVLGEVIAGDWKSYQYLVESIRRFPSQEEFKDMIEDAGFHKVTYESLTSGIVAIHSGFKL [COQ5]; 54.4

Now take the following sequence into account.
Field melting temperature (HeLa Kyoto), entry MSDEREVAEAATGEDASSPPPKTEAASDPQHPAASEGAAAAAASPPLLRCLVLTGFGGYDKVKLQSRPAAPPAPGPGQLTLRLRACGLNFADLMARQGLYDRLPPLPVTPGMEGAGVVIAVGEGVSDRKAGDRVMVLNRSGMWQEEVTVPSVQTFLIPEAMTFEEAAALLVNYITAYMVLFDFGNLQPGHSVLVHMAAGGVGMAAVQLCRTVENVTVFGTASASKHEALKENGVTHPIDYHTTDYVDEIKKISPKGVDIVMDPLGGSDTAKGYNLLKPMGKVVTYGMANLLTGPKRNLMALARTWWNQFSVTALQLLQANRAVCGFHLGYLDGEVELVSGVVARLLALYNQGHIKPHIDSVWPFEKVADAMKQMQEKKNVGKVLLVPGPEKEN [VAT1] : 55.9

* * *

Tested on: HeLa Kyoto
protocol.description: thermal stability score vs G1/S (z-score of summed log2 fold changes over temperatures); higher = more thermally stable than in G1/S
condition.context: cell cycle stage: mitosis
Assignment: determine reported thermal stability score for the given sequences.
Give bare numbers.

MDPSLLRERELFKKRALSTPVVEKRSASSESSSSSSKKKKTKVEHGGSSGSKQNSDHSNGSFNLKALSGSSGYKFGVLAKIVNYMKTRHQRGDTHPLTLDEILDETQHLDIGLKQKQWLMTEALVNNPKIEVIDGKYAFKPKYNVRDKKALLRLLDQHDQRGLGGILLEDIEEALPNSQKAVKALGDQILFVNRPDKKKILFFNDKSCQFSVDEEFQKLWRSVTVDSMDEEKIEEYLKRQGISSMQESGPKKVAPIQRRKKPASQKKRRFKTHNEHLAGVLKDYSDITSSK [GTF2E2]; 3.1
MEGLVVAAGGDVSLHNFSARLWEQLVHFHVMRLTDSLFLWVGATPHLRNLAVAMCSRYDSIPVSTSLLGDTSDTTSTGLAQRLARKTNKQVFVSYNLQNTDSNFALLVENRIKEEMEAFPEKF [PSMG4]; -2.02
MSALEKSMHLGRLPSRPPLPGSGGSQSGAKMRMGPGRKRDFSPVPWSQYFESMEDVEVENETGKDTFRVYKSGSEGPVLLLLHGGGHSALSWAVFTAAIISRVQCRIVALDLRSHGETKVKNPEDLSAETMAKDVGNVVEAMYGDLPPPIMLIGHSMGGAIAVHTASSNLVPSLLGLCMIDVVEGTAMDALNSMQNFLRGRPKTFKSLENAIEWSVKSGQIRNLESARVSMVGQVKQCEGITSPEGSKSIVEGIIEEEEEDEEGSESISKRKKEDDMETKKDHPYTWRIELAKTEKYWDGWFRGLSNLFLSCPIPKLLLLAGVDRLDKDLTIGQMQGKFQMQVLPQCGHAVHEDAPDKVAEAVATFLIRHRFAEPIGGFQCVFPGC [PPME1]; -0.609

State the recorded thermal stability score for every item in the following list.
1. MAKVSVLNVAVLENPSPFHSPFRFEISFECSEALADDLEWKIIYVGSAESEEFDQILDSVLVGPVPAGRHMFVFQADAPNPSLIPETDAVGVTVVLITCTYHGQEFIRVGYYVNNEYLNPELRENPPMKPDFSQLQRNILASNPRVTRFHINWDNNMDRLEAIETQDPSLGCGLPLNCTPIKGLGLPGCIPGLLPENSMDCI [ASF1B]
2. MALPIIVKWGGQEYSVTTLSEDDTVLDLKQFLKTLTGVLPERQKLLGLKVKGKPAENDVKLGALKLKPNTKIMMMGTREESLEDVLGPPPDNDDVVNDFDIEDEVVEVENREENLLKISRRVKEYKVEILNPPREGKKLLVLDVDYTLFDHRSCAETGVELMRPYLHEFLTSAYEDYDIVIWSATNMKWIEAKMKELGVSTNANYKITFMLDSAAMITVHTPRRGLIDVKPLGVIWGKFSEFYSKKNTIMFDDIGRNFLMNPQNGLKIRPFMKAHLNRDKDKELLKLTQYLKEIAKLDDFLDLNHKYWERYLSKKQGQ [UBLCP1]

Result:
1. -1.16
2. 2.39

Field thermal stability score (HeLa Kyoto), entry MALDFLAGCAGGVAGVLVGHPFDTVKVRLQVQSVEKPQYRGTLHCFKSIIKQESVLGLYKGLGSPLMGLTFINALVFGVQGNTLRALGHDSPLNQFLAGAAAGAIQCVICCPMELAKTRLQLQDAGPARTYKGSLDCLAQIYGHEGLRGVNRGMVSTLLRETPSFGVYFLTYDALTRALGCEPGDRLLVPKLLLAGGTSGIVSWLSTYPVDVVKSRLQADGLRGAPRYRGILDCVHQSYRAEGWRVFTRGLASTLLRAFPVNAATFATVTVVLTYARGEEAGPEGEAVPAAPAGPALAQPSSL [SLC25A29] : -0.997

* * *

System: HeLa Kyoto
protocol.description: solubility change mitosis vs G1/S (difference of NP-40 vs SDS log2 ratios) (log2 ratio difference); higher = more soluble in mitosis
assay.metric: solubility change mitosis (log2)
One number for each entry.

Some solved entries appear below for comparison.
MAVKKIAIFGATGQTGLTTLAQAVQAGYEVTVLVRDSSRLPSEGPRPAHVVVGDVLQAADVDKTVAGQDAVIVLLGTRNDLSPTTVMSEGARNIVAAMKAHGVDKVVACTSAFLLWDPTKVPPRLQAVTDDHIRMHKVLRESGLKYVAVMPPHIGDQPLTGAYTVTLDGRGPSRVISKHDLGHFMLRCLTTDEYDGHSTYPSHQYQ [BLVRB]; -0.116
MAPGVARGPTPYWRLRLGGAALLLLLIPVAAAQEPPGAACSQNTNKTCEECLKNVSCLWCNTNKACLDYPVTSVLPPASLCKLSSARWGVCWVNFEALIITMSVVGGTLLLGIAICCCCCCRRKRSRKPDRSEEKAMREREERRIRQEERRAEMKTRHDEIRKKYGLFKEENPYARFENN [PTTG1IP]; -0.143

State the recorded solubility change mitosis (log2) for every item in the following list.
1. MAAGTSSYWEDLRKQARQLENELDLKLVSFSKLCTSYSHSSTRDGRRDRYSSDTTPLLNGSSQDRMFETMAIEIEQLLARLTGVNDKMAEYTNSAGVPSLNAALMHTLQRHRDILQDYTHEFHKTKANFMAIRERENLMGSVRKDIESYKSGSGVNNRRTELFLKEHDHLRNSDRLIEETISIAMATKENMTSQRGMLKSIHSKMNTLANRFPAVNSLIQRINLRKRRDSLILGGVIGICTILLLLYAFH [GOSR1]
2. MAPGEVTITVRLIRSFEHRNFKPVVYHGVNLDQTVKEFIVFLKQDIPLRTNLPPPFRNYKYDALKIIHQAHKSKTNELVLSLEDDERLLLKEDSTLKAAGIASETEIAFFCEEDYKNYKANPISSW [C2ORF76]

Result:
[0.02, 0.0795]

The reported measurements were obtained from the supplement of paper PMC5998384.
